tested_target: Rat CYP11B2 (Rattus norvegicus)
Construct: sonicated homogenate, 500 x g supernatant
Sequence (P30099 35-510): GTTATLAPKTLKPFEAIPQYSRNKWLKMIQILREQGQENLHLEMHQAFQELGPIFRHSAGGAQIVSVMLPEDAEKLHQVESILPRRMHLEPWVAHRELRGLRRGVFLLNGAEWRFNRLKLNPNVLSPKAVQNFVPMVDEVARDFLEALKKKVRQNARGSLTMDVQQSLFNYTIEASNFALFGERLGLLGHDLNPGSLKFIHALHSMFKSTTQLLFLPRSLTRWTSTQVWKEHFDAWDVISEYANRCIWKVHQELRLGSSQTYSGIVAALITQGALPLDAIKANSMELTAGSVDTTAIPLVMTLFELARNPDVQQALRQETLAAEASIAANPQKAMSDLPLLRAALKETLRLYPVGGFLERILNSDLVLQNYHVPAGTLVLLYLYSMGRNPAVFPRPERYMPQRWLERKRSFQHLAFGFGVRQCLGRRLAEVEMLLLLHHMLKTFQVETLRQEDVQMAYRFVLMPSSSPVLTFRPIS
measurement_description: In vitro rat CYP11B2 assay
measurement_setup: V79-4 cell homogenate, 11-deoxycorticosterone to aldosterone, SPA
Protocol: Following 2 days of growth, cells are washed once with PBS, scraped and collected in PBS, and centrifuged at 1,300 rpm for 6 min. […] The sonication procedure is repeated 3 more times, with a 5 min incubation on ice between sonications. […] Measurement of aldosterone is performed using a 96-well plate format. […] The amount of aldosterone in each sample is calculated by comparing with a standard curve generated using known quantities of the hormone. […]
pIC50: −log10 of the molar value.

molecule	tested_target	pIC50
N#Cc1ccc(C2CCCCc3cncn32)c(-c2ccc(F)cc2)c1 (single isomer, unassigned)	Rat CYP11B2 (Rattus norvegicus)	9.00
N#Cc1ccc([C@H]2CCc3cncn32)c(F)c1 (single isomer, unassigned) [4-(6,7-Dihydro-5H-pyrrolo[1,2-c]imidazol-5-yl)-3-fluorobenzonitrile enantiomer B]	Rat CYP11B2 (Rattus norvegicus)	6.96
N#Cc1ccc(C2CCCCc3cncn32)c(Br)c1 (racemic) [3-bromo-4-(6,7,8,9-tetrahydro-5H-imidazo[1,5-a]azepin-5-yl)benzonitrile racemate]	Rat CYP11B2 (Rattus norvegicus)	9.00
COc1ccc(CN(C)C(=O)C2(c3ccc(C#N)cc3Cl)CCc3cncn32)cc1 (stereo not shown)	Rat CYP11B2 (Rattus norvegicus)	8.30
